As shown below, each of these compounds has a reported Kd value.
# testedSystem: Carbonic anhydrase 2 (Homo sapiens, UniProt P00918)
# measurementDescription: Dissociation constant against human carbonic anhydrase II at 37 degree Centigrade
Entry format: amount then unit.

| compound | Kd |
| --- | --- |
| NS(=O)(=O)c1ccc(C(=O)NC(Cc2ccc([N+](=O)[O-])cc2)C(=O)O)cc1 (centres undefined) | 22 nM |
| NS(=O)(=O)c1ccc(C(=O)NCC(=O)N2CCCC2C(=O)O)cc1 (centres undefined) | 250 nM |
| CCC(C)C(NC(=O)c1ccc(S(N)(=O)=O)cc1)C(=O)O (centres undefined) | 9 nM |
| NS(=O)(=O)c1ccc(C(=O)NC(CCC(=O)O)C(=O)O)cc1 (centres undefined) | 530 nM |
| CC(C)(C)C(NC(=O)CNC(=O)c1ccc(S(N)(=O)=O)cc1)C(=O)O (centres undefined) | 150 nM |

Answer with reported Kd of NS(=O)(=O)c1ccc(C(=O)NCC(=O)NCC(=O)NCC(=O)N[C@@H](Cc2ccc([N+](=O)[O-])cc2)C(=O)O)cc1 160 nM

Answer with reported Kd of NS(=O)(=O)c1ccc(C(=O)NCC(=O)NCC(=O)N[C@@H](CC(=O)O)C(=O)O)cc1 400 nM

Answer with reported Kd of CCCC[C@H](NC(=O)CNC(=O)CNC(=O)c1ccc(S(N)(=O)=O)cc1)C(=O)O 140 nM

Answer with reported Kd of Nc1ccc(C[C@H](NC(=O)CNC(=O)CNC(=O)c2ccc(S(N)(=O)=O)cc2)C(=O)O)cc1 210 nM

---

As shown below, each of these molecules has a reported pKd value.
# testedSystem: Carbonic anhydrase 2 (Homo sapiens, UniProt P00918)
# measurementDescription: Dissociation constant against human carbonic anhydrase II at 37 degree Centigrade
Note on pKd: it is the negative log10 of concentration, concentration in mol/L.

| structureSmiles | testValue |
| --- | --- |
| NC(=O)CC[C@H](NC(=O)CNC(=O)CNC(=O)c1ccc(S(N)(=O)=O)cc1)C(=O)O | 6.57 |

Recall the reported pKd of COc1ccc(C[C@H](NC(=O)CNC(=O)CNC(=O)c2ccc(S(N)(=O)=O)cc2)C(=O)O)cc1 when tested on Carbonic anhydrase 2 (Homo sapiens, UniProt P00918). 6.77

Recall the reported pKd of CSCC[C@@H](NC(=O)CNC(=O)CNC(=O)CNC(=O)c1ccc(S(N)(=O)=O)cc1)C(=O)O when tested on Carbonic anhydrase 2 (Homo sapiens, UniProt P00918). 6.66

Recall the reported pKd of CSCC[C@@H](NC(=O)CNC(=O)CNC(=O)c1ccc(S(N)(=O)=O)cc1)C(=O)O when tested on Carbonic anhydrase 2 (Homo sapiens, UniProt P00918). 6.80

Recall the reported pKd of CC(C)(C)[C@H](NC(=O)CNC(=O)CNC(=O)c1ccc(S(N)(=O)=O)cc1)C(=O)O when tested on Carbonic anhydrase 2 (Homo sapiens, UniProt P00918). 6.62

---

# testedSystem: Carbonic anhydrase 2 (Homo sapiens)
# measurementDescription: Dissociation constant was determined against human carbonic anhydrase II at 37 degree Celsius in experiment 1
resultType: pKd
Note on pKd: it is the negative log10 of concentration, concentration in mol/L.

Answer with reported pKd of NS(=O)(=O)c1ccc(C(=O)NCC(=O)O)cc1 6.51

---

# testedSystem: Carbonic anhydrase 2 (Homo sapiens, UniProt P00918)
# measurementDescription: Dissociation constant was determined against human carbonic anhydrase II at 37 degree Centigrade in experiment 2
resultType: pKd
Note on pKd: it is the negative log10 of concentration, concentration in mol/L.

Recall the reported pKd of NS(=O)(=O)c1ccc(C(=O)NCC(=O)O)cc1 when tested on Carbonic anhydrase 2 (Homo sapiens, UniProt P00918). 6.48

---

As shown below, each of these compounds has a reported Kd value.
# testedSystem: Carbonic anhydrase 2 (Homo sapiens, UniProt P00918)
# measurementDescription: Dissociation constant against human carbonic anhydrase II at 37 degree Centigrade
Respond numerically; units are nM and should not be typed.

Before answering, review these 3 worked examples.
| compound | Kd [nM] |
| --- | --- |
| C[C@H](NC(=O)CNC(=O)c1ccc(S(N)(=O)=O)cc1)C(=O)O | 170 |
| NS(=O)(=O)c1ccc(C(=O)NCC(=O)NCC(=O)NCC(=O)N[C@@H](CO)C(=O)O)cc1 | 360 |
| CC(O)C(NC(=O)CNC(=O)c1ccc(S(N)(=O)=O)cc1)C(=O)O (configuration not stated) | 320 |

Answer with reported Kd of CCCCC(NC(=O)c1ccc(S(N)(=O)=O)cc1)C(=O)O (configuration not stated) 5

Answer with reported Kd of NS(=O)(=O)c1ccc(C(=O)NCC(=O)NC(Cc2ccc(Cl)cc2)C(=O)O)cc1 (configuration not stated) 100

Answer with reported Kd of CC(C)[C@H](NC(=O)CNC(=O)CNC(=O)CNC(=O)c1ccc(S(N)(=O)=O)cc1)C(=O)O 290

Answer with reported Kd of N=C(N)NCCCC(NC(=O)c1ccc(S(N)(=O)=O)cc1)C(=O)O (configuration not stated) 220

Answer with reported Kd of NS(=O)(=O)c1ccc(C(=O)NCC(=O)NC(Cc2ccccc2)C(=O)O)cc1 (configuration not stated) 140

Answer with reported Kd of Nc1ccc(CC(NC(=O)CNC(=O)c2ccc(S(N)(=O)=O)cc2)C(=O)O)cc1 (configuration not stated) 330

Answer with reported Kd of CC[C@H](C)[C@H](NC(=O)CNC(=O)CNC(=O)CNC(=O)c1ccc(S(N)(=O)=O)cc1)C(=O)O 230

---

# testedSystem: UniProtKB P00918
# measurementDescription: Dissociation constant against human carbonic anhydrase II at 37 degree Centigrade
As shown below, each of these compounds has a reported Kd value.
Respond numerically; units are nM and should not be typed.

Before answering, review these 5 worked examples.
| compound | unitsSymbol | Kd |
| --- | --- | --- |
| NS(=O)(=O)c1ccc(C(=O)NCC(=O)NC(Cc2ccc(F)cc2)C(=O)O)cc1 (stereo not given) | nM | 130 |
| NS(=O)(=O)c1ccc(C(=O)NCC(=O)NCC(=O)N[C@@H](Cc2ccc(Cl)cc2)C(=O)O)cc1 | nM | 94 |
| C[C@H](NC(=O)CNC(=O)CNC(=O)c1ccc(S(N)(=O)=O)cc1)C(=O)O | nM | 250 |
| CCCCC(NC(=O)CNC(=O)c1ccc(S(N)(=O)=O)cc1)C(=O)O (stereo not given) | nM | 140 |
| NS(=O)(=O)c1ccc(C(=O)NCC(=O)NCC(=O)N[C@@H](CCC(=O)O)C(=O)O)cc1 | nM | 372 |

Answer with reported Kd of COc1ccc(CC(NC(=O)c2ccc(S(N)(=O)=O)cc2)C(=O)O)cc1 (stereo not given) 27

Answer with reported Kd of NC(=O)CCC(NC(=O)c1ccc(S(N)(=O)=O)cc1)C(=O)O (stereo not given) 140

Answer with reported Kd of CCC(C)C(NC(=O)CNC(=O)c1ccc(S(N)(=O)=O)cc1)C(=O)O (stereo not given) 160

---

# testedSystem: Carbonic anhydrase 2 (Homo sapiens)
# measurementDescription: Dissociation constant against human carbonic anhydrase II at 37 degree Centigrade
As shown below, each of these compounds has a reported pKd value.
Note on pKd: it is the negative log10 of concentration, concentration in mol/L.

Before answering, review these 10 worked examples.
| compound | testedSystem | testValue |
| --- | --- | --- |
| CC(C)C(NC(=O)CNC(=O)c1ccc(S(N)(=O)=O)cc1)C(=O)O (configuration not stated) | Carbonic anhydrase 2 (Homo sapiens) | 6.85 |
| NS(=O)(=O)c1ccc(C(=O)NCC(=O)NCC(=O)NCC(=O)N[C@@H](Cc2ccc3ccccc3c2)C(=O)O)cc1 | Carbonic anhydrase 2 (Homo sapiens) | 6.80 |
| NS(=O)(=O)c1ccc(C(=O)NCC(=O)NCC(=O)NCC(=O)N[C@@H](Cc2ccc(F)cc2)C(=O)O)cc1 | Carbonic anhydrase 2 (Homo sapiens) | 6.85 |
| NS(=O)(=O)c1ccc(C(=O)NCC(=O)NCC(=O)NCC(=O)N[C@@H](CC(=O)O)C(=O)O)cc1 | Carbonic anhydrase 2 (Homo sapiens) | 6.52 |
| NS(=O)(=O)c1ccc(C(=O)NCC(=O)NCC(=O)N[C@@H](Cc2ccc(F)cc2)C(=O)O)cc1 | Carbonic anhydrase 2 (Homo sapiens) | 6.92 |
| NC(=O)CC(NC(=O)c1ccc(S(N)(=O)=O)cc1)C(=O)O (configuration not stated) | Carbonic anhydrase 2 (Homo sapiens) | 6.42 |
| NS(=O)(=O)c1ccc(C(=O)NC(Cc2ccccc2)C(=O)O)cc1 (configuration not stated) | Carbonic anhydrase 2 (Homo sapiens) | 7.89 |
| Nc1ccc(CC(NC(=O)c2ccc(S(N)(=O)=O)cc2)C(=O)O)cc1 (configuration not stated) | Carbonic anhydrase 2 (Homo sapiens) | 7.19 |
| NS(=O)(=O)c1ccc(C(=O)NCC(=O)NC(CC(=O)O)C(=O)O)cc1 (configuration not stated) | Carbonic anhydrase 2 (Homo sapiens) | 6.38 |
| CC(C)C(NC(=O)c1ccc(S(N)(=O)=O)cc1)C(=O)O (configuration not stated) | Carbonic anhydrase 2 (Homo sapiens) | 7.82 |

Answer with reported pKd of N=C(N)NCCC[C@H](NC(=O)CNC(=O)CNC(=O)c1ccc(S(N)(=O)=O)cc1)C(=O)O 6.52

Answer with reported pKd of CC[C@H](C)[C@H](NC(=O)CNC(=O)CNC(=O)c1ccc(S(N)(=O)=O)cc1)C(=O)O 6.64

Answer with reported pKd of Nc1ccc(C[C@H](NC(=O)CNC(=O)CNC(=O)CNC(=O)c2ccc(S(N)(=O)=O)cc2)C(=O)O)cc1 6.72

Answer with reported pKd of NS(=O)(=O)c1ccc(C(=O)NCC(=O)NCC(=O)NCC(=O)O)cc1 6.64

Answer with reported pKd of CC(O)C(NC(=O)c1ccc(S(N)(=O)=O)cc1)C(=O)O (configuration not stated) 7.28

Answer with reported pKd of C[C@H](NC(=O)CNC(=O)CNC(=O)CNC(=O)c1ccc(S(N)(=O)=O)cc1)C(=O)O 6.52

Answer with reported pKd of NS(=O)(=O)c1ccc(C(=O)N2CCCC2C(=O)O)cc1 (configuration not stated) 6.64
